Target: T1, RBFOX1 RRM (Homo sapiens, UniProt Q9NWB1 109-208)
T1 sequence: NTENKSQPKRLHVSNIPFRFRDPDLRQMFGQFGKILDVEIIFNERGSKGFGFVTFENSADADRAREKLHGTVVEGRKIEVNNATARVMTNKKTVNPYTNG
Assay: EMSA; HiTS-Eq, 1 nM pool, 10 min; buffer printed only for the single-RNA assays: 10 mM Tris pH 7.5, 150 mM NaCl, 3.4 mM EDTA, 0.001% NP-40, 30 C
Conditions: tags: His6 N-terminal (pET28a); label: 5' 32P
In all, about 16,000 sequences were measured (“ka relative to ugcaugu”: median about 0.0091, highest 2% from about 0.032 on). What follows is part of a selection rich in the highest values, with near analogues and random picks from the rest.
Known binding signal of a selection of binders
MEASUREMENT LABEL: binding signal

UGAAUGC (DNA:RNA) RNA: GGGAGACCGGAAUUCAGAUUGUCCUGAAUGCUUAAAUCCCGUCGUAGCCACCA DNA 1: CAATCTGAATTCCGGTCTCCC DNA 2: TGGTGGCTACGACGGGATT = 0.0399 KA relative to UGCAUGU
GGCUUGC (DNA:RNA) RNA: GGGAGACCGGAAUUCAGAUUGUCCGGCUUGCUUAAAUCCCGUCGUAGCCACCA DNA 1: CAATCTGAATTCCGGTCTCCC DNA 2: TGGTGGCTACGACGGGATT = 0.0328 KA relative to UGCAUGU
CUGCUAG (DNA:RNA) RNA: GGGAGACCGGAAUUCAGAUUGUCCCUGCUAGUUAAAUCCCGUCGUAGCCACCA DNA 1: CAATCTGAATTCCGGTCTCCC DNA 2: TGGTGGCTACGACGGGATT = 0.0317 KA relative to UGCAUGU
UUGCUGC (DNA:RNA) RNA: GGGAGACCGGAAUUCAGAUUGUCCUUGCUGCUUAAAUCCCGUCGUAGCCACCA DNA 1: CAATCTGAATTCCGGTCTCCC DNA 2: TGGTGGCTACGACGGGATT = 0.0167 KA relative to UGCAUGU
